- Test system: P. aeruginosa ATCC 15692
- PROCEDURE_SUMMARY: MIC, P. aeruginosa ATCC 15692
- Assay type: cell-based
- CONDITION_DETAILS: Table 10; Pa = P. aeruginosa
VALUE_TYPE: Pa MIC (µg/mL)
# value in µg/mL; strip the unit string

Use the examples below as a reference point.
{"MOLECULE": "CNc1cc(F)cc2c1[nH]c1nc(Oc3cnc(C)nc3)nc(N3CC4NCCC4(C)C3)c12 (stereo not shown)", "Pa MIC, µg/mL": 8}
{"MOLECULE": "CNc1cc(F)cc2c1[nH]c1nc(Oc3cnc(C)nc3)nc(N3CC4(CC[C@H]4N)C3)c12", "Pa MIC, µg/mL": 1}
{"MOLECULE": "CNc1cc(F)cc2c1[nH]c1nc(Oc3cnc4cccnc4c3)nc(N3CC4C(N)C4C3)c12 (stereo not shown)", "Pa MIC, µg/mL": 4}

Switching to the query record.
[Q] Given CNc1cc(F)cc2c1[nH]c1nc(Oc3cnc(C)nc3)nc(N3CCC4(CCC4N)C3)c12 (stereo not shown) , state its recorded Pa MIC.
[A] 1
